- test_description: gradient 5% acetonitrile 3 min, to 50% in 2 min, to 85% in 15 min, held 3 min, 100 µL/min
- run_parameters: column: Zorbax Extend-C18 2.1 x 50 mm; eluents: water / acetonitrile, 0.1% formic acid
measured_parameter: RP-LC retention time (s)
Number only, in s; omit the unit.

*Q* Which RP-LC retention time value belongs to `CCOc1ccc(S(=O)(=O)NCCn2nc(C)cc2C)cc1F` ?
*A* 731

*Q* // same read-out, input: `CC1CCN(S(=O)(=O)c2ccc3c(c2)CCCC(=O)N3CC(=O)N2CCOCC2)CC1`
*A* 768

*Q* // same read-out, input: `O=c1n(Cc2cccc(Br)c2)nc2c(S(=O)(=O)N3CCOCC3)cccn12`
*A* 811

*Q* // same read-out, input: `Cc1ccccc1N1CCN(C(=O)c2cn(-c3cc(N4CCSCC4)ncn3)cn2)CC1`
*A* 1040

*Q* // same read-out, input: `COc1ccc(-c2cc(-c3ccccc3)nc3c2CC(=O)Nc2ccccc2-3)cc1OC`
*A* 1100

###

Give RP-LC retention time for every item shown.
- test_description: gradient 5% acetonitrile 3 min, to 50% in 2 min, to 85% in 15 min, held 3 min, 100 µL/min
- run_parameters: column: Zorbax Extend-C18 2.1 x 50 mm; eluents: water / acetonitrile, 0.1% formic acid
Number only, in s; omit the unit.

*Q* Which RP-LC retention time value belongs to `Cc1noc2ncn(CC(=O)NCc3cccc(F)c3)c(=O)c12` ?
*A* 712

*Q* // same read-out, input: `Cc1cccc(NC(=O)N2CCC(c3cc(N)on3)CC2)c1C`
*A* 685

*Q* // same read-out, input: `Cc1ccc(NC(=O)Cc2c(C)nn(-c3nc(-c4ccc(Cl)cc4)cs3)c2C)cc1C`
*A* 852

*Q* // same read-out, input: CC1CCCCN1CCNC(=O)c1ccc2c(c1)nc1n2CCN(Cc2ccccc2)C1=O (stereo not given)
*A* 601

*Q* // same read-out, input: `Cc1ccc(-c2nocc2CCC(=O)NCc2ccc3c(c2)OCO3)cc1`
*A* 816

*Q* // same read-out, input: `CCOc1ccc(S(=O)(=O)N2CCc3c(c(-c4nnc(-c5ccccc5)o4)nn3C)C2)cc1`
*A* 996

*Q* // same read-out, input: `CCCCOC(=O)CSc1nnc(-c2cc(OC)c(OC)c(OC)c2)o1`
*A* 1000

*Q* // same read-out, input: `Cc1cc(N2CCCC2)n2ncnc2n1`
*A* 567

*Q* // same read-out, input: `COc1cccc(-n2c(N3CCC(C(=O)NCC(C)C)CC3)nc3ccsc3c2=O)c1`
*A* 773

*Q* // same read-out, input: `CN(C)CCn1nnc2cc(-c3noc(-c4ccc(Br)cc4)n3)ccc21`
*A* 727

*Q* // same read-out, input: `COc1cc2c(cc1C(=O)NCCOc1ccc(Cl)cc1)OCCCO2`
*A* 982

*Q* // same read-out, input: CCOc1ccc(C(C)NC(=O)C2CCN(c3cncnc3N3CCOCC3)CC2)cc1 (stereo not given)
*A* 649

*Q* // same read-out, input: `CCCN(C(=O)Cc1c(C(=O)O)c(C)cn1CC)c1cccc(Cl)c1`
*A* 767

*Q* // same read-out, input: CCCOc1ccc(C(=O)Nc2nnc(C3CC(=O)N(c4ccc(Cl)cc4)C3)o2)cc1 (stereo not given)
*A* 909

*Q* // same read-out, input: CCC(C)NC(=O)Cn1nc2nc(Nc3ccc(F)cc3)ccn2c1=O (stereo not given)
*A* 684

*Q* // same read-out, input: O=C(NCc1cccnc1)NC1CC(=O)N(c2ccc(Cl)cc2)C1 (stereo not given)
*A* 546

*Q* // same read-out, input: `COc1ccccc1NC(=O)c1oc2ccccc2c1NC(=O)Cc1ccc(F)cc1`
*A* 1180

*Q* // same read-out, input: `COc1cc(NC(=O)N2CCN(CCn3c(C(F)(F)F)nc4cccnc43)CC2)cc(OC)c1`
*A* 642

*Q* // same read-out, input: `O=C(c1cnccn1)N1C[C@@H](COCC2CC2)[C@H](c2ccncc2)C1`
*A* 563

*Q* // same read-out, input: `CN1C(=O)CCc2cc(NS(=O)(=O)c3ccc(Cl)c(Cl)c3)ccc21`
*A* 1040

*Q* // same read-out, input: `Cc1ccc(Nc2c(-c3cccc(Br)c3)nc3ccccn23)cc1`
*A* 778

*Q* // same read-out, input: `Cc1cc(Cl)ccc1OCc1nc(-c2ccc3c(c2)nnn3CCC(=O)N2CCCCCC2)no1`
*A* 1180

*Q* // same read-out, input: `Cc1cc(C)n(-c2ccc(N3CCC(C(=O)NCc4ccc5c(c4)OCO5)CC3)nn2)n1`
*A* 642

*Q* // same read-out, input: `COc1ccc(OC)c(S(=O)(=O)N2CCC(n3cnc4ccc(C)cc4c3=O)CC2)c1`
*A* 881

*Q* // same read-out, input: `O=C(NCc1noc(-c2ccco2)n1)c1coc(C2CC2)n1`
*A* 736

*Q* // same read-out, input: `O=C(Cc1ccc(F)cc1)Nc1nc(-c2ccccc2)cs1`
*A* 988

*Q* // same read-out, input: CCCCN(C(=O)c1ccc(S(=O)(=O)N2CCOCC2)cc1)C1CCS(=O)(=O)C1 (stereo not given)
*A* 687

*Q* // same read-out, input: `COc1ccc([N+](=O)[O-])cc1NC(=O)Cc1cccc2ccccc12`
*A* 967

*Q* // same read-out, input: `CCc1ccccc1NC(=O)N1CCc2nc(-c3ccc(Cl)cc3)ncc2C1`
*A* 1160

*Q* // same read-out, input: `O=c1cc(-c2ccccc2)oc2cc(O)c(O)cc12`
*A* 750

*Q* // same read-out, input: `CCn1c(=O)sc2cc(S(=O)(=O)N3CCC(C(=O)Nc4ncccc4C)CC3)ccc21`
*A* 666

*Q* // same read-out, input: `c1csc(-c2csc(CN3CCNCC3)n2)c1`
*A* 548

*Q* // same read-out, input: `Cn1c(=O)sc2cc(S(=O)(=O)N3CCC(C(=O)N4CCOCC4)CC3)ccc21`
*A* 663

*Q* // same read-out, input: `Cc1noc(C)c1-c1ccc(S(=O)(=O)Nc2ccc3c(c2)OCCO3)cc1`
*A* 880

*Q* // same read-out, input: `CCc1noc(NC(C)=O)c1-c1ccc(C)c(S(=O)(=O)NC2CC2)c1`
*A* 728

*Q* // same read-out, input: CCCNC(=O)CC1=C2CCCCC2N(C)C1=O (stereo not given)
*A* 638

*Q* // same read-out, input: `OCCNCc1ccc(-c2cc(Cl)cc(Cl)c2)o1`
*A* 676

*Q* // same read-out, input: `COc1ccc(-c2noc(N3CCC(Cc4ccccc4)CC3)n2)cc1OC`
*A* 1240

*Q* // same read-out, input: `Cc1ccc(-n2c(=O)n(CC(=O)Nc3ccc(C)cc3C)c3cccnc32)cc1`
*A* 907

*Q* // same read-out, input: `COc1cc(OC)cc(C(=O)N2CCn3cnnc3C2)c1`
*A* 578

###

- test_description: gradient 5% acetonitrile 3 min, to 50% in 2 min, to 85% in 15 min, held 3 min, 100 µL/min
- run_parameters: column: Zorbax Extend-C18 2.1 x 50 mm; eluents: water / acetonitrile, 0.1% formic acid
measured_parameter: RP-LC retention time (s)
Number only, in s; omit the unit.

*Q* Which RP-LC retention time value belongs to `O=C1NCCCn2cc(S(=O)(=O)N3CCN(c4cccc(Cl)c4)CC3)cc21` ?
*A* 804

*Q* // same read-out, input: `O=C(CN1CCC(c2nc(-c3ccc(F)cc3)no2)CC1)NC1CCCC1`
*A* 678

*Q* // same read-out, input: `COc1ccc(C)cc1NC(=O)Cn1c(N2CCOCC2)nc(C)cc1=O`
*A* 719

*Q* // same read-out, input: `Cc1ccccc1NC(=O)N1CCc2nc(-c3ccc(Cl)cc3)ncc2C1`
*A* 1020

*Q* // same read-out, input: `COc1cccc(-c2noc(CN3C(=O)COc4ccccc43)n2)c1`
*A* 981

*Q* // same read-out, input: COc1ccc(C2Cn3cnc(C(=O)N4CCC(C(=O)NC5CCCC5)CC4)c3CO2)cc1 (stereo unspecified)
*A* 705

*Q* // same read-out, input: `Cc1ccc(F)c2c(=O)c3c([nH]c12)CCN(CC(=O)NC1CCCC1)C3`
*A* 669

*Q* // same read-out, input: `Cn1cccc1Cc1nnc(SCC(=O)Nc2ccccc2F)n1CCc1ccccc1`
*A* 850

*Q* // same read-out, input: `O=C(C1CCN(c2cc(N3CCCCC3)ncn2)CC1)N1CCCCCC1`
*A* 661

*Q* // same read-out, input: CC(C)CCN1CCC(N2CCN(S(=O)(=O)Cc3ccccc3)CC2)C1=O (stereo unspecified)
*A* 646

*Q* // same read-out, input: `COc1cccc(NC(=O)Cn2nc3cc(C)nc(N4CCCC4)n3c2=O)c1`
*A* 760

*Q* // same read-out, input: CCc1cc(C2CCCN2C(=O)Nc2cccc(OC)c2)on1 (stereo unspecified)
*A* 835

*Q* // same read-out, input: O=C(C1CCCN(c2nnc(-n3cccc3)s2)C1)N1CCN(Cc2ccccc2)CC1 (stereo unspecified)
*A* 661

*Q* // same read-out, input: `COc1c(C(=O)NC2CCCC2)sc2cccc(F)c12`
*A* 1100

*Q* // same read-out, input: `O=C(C1=CN(c2cccc(Cl)c2)c2ccccc2S1(=O)=O)N1CCOCC1`
*A* 782

*Q* // same read-out, input: `CCn1nnc2ccc(-c3noc(-c4cccc(C#N)c4)n3)cc21`
*A* 957

*Q* // same read-out, input: `Cc1ccc(NC(=O)N2CCc3nc[nH]c3C2)c(C)c1`
*A* 578

*Q* // same read-out, input: CCCN(CC1CCOC1)C(=O)Nc1cc(Cl)ccc1C (stereo unspecified)
*A* 901

*Q* // same read-out, input: `Cc1nc(-c2noc(-c3ccccc3)n2)cn1CC(=O)NCc1ccc(F)cc1F`
*A* 838

*Q* // same read-out, input: `COc1ccc(/C=C/C(=O)Nc2ccccc2C(=O)O)cc1OC`
*A* 927

*Q* // same read-out, input: `Cc1nnc(-c2ccc(S(=O)(=O)NCc3ccco3)o2)o1`
*A* 722
